System: CCRIS mutagenicity, Ames/micronucleus/aberration tests
method: CCRIS mutagenicity studies
condition_context: Test System: E. coli; Strain/Indicator: WP2uvrA/pKM101; Metabolic Activation: Rat, Liver, S9, Sodium phenobarbital and 5,6-benzoflavone (10%); Method: Preincubation
Activity calls are given as the source filed them. The rule behind the calls is not given here.
Just give me one of these, please: active, inactive

input_smiles: CC(C)(C)c1ccc(C(=O)O)cc1
cat: inactive

## Task Lab log entry: "C=Cc1ccccn1" — outcome as called in the assay?
## Result active

## Task Now give it for "CC(=O)[O-].CC(=O)[O-].O.O.O.O.[Co+2]" too.
## Result inactive

## Task Now give it for "Cc1cc(S(=O)(=O)O)c(N)cc1Cl" too.
## Result inactive

====

Test system: CCRIS mutagenicity, Ames/micronucleus/aberration tests
method: CCRIS mutagenicity studies
condition_context: End Point: IN VITRO CHROMOSOMAL ABERRATIONS; Test System: CHINESE HAMSTER OVARY CELLS; Metabolic Activation: NONE
Activity calls are given as the source filed them. How the calls were made is not given here.
Just give me one of these, please: 1 (yes) (active), 0 (no) (inactive)

Would you please look over these solved cases?
compound: O=Cc1ccccc1
cat: 0 (no)

compound: OC(c1ccc(Cl)cc1)(c1ccc(Cl)cc1)C(Cl)(Cl)Cl
cat: 0 (no)

## Task Lab log entry: "ClC(Cl)=C(Cl)Cl" — outcome as called in the assay?
## Result 0 (no)

## Task Now give it for "O=P(OCCCl)(OCCCl)OCCCl" too.
## Result 0 (no)

## Task Now give it for "CC(Cl)(Cl)Cl" too.
## Result 1 (yes)

## Task Now give it for "O=C1OC(=O)c2c(Cl)c(Cl)c(Cl)c(Cl)c21" too.
## Result 0 (no)

## Task Now give it for O=C1C2(Cl)C3(Cl)C4(Cl)C(Cl)(Cl)C5(Cl)C3(Cl)C1(Cl)C5(Cl)C24Cl (stereo not drawn) too.
## Result 0 (no)

## Task Now give it for "Nc1ccc(S(N)(=O)=O)cc1" too.
## Result 0 (no)

====

System: CCRIS mutagenicity, Ames/micronucleus/aberration tests
method: CCRIS mutagenicity studies
condition_context: Test System: AMES SALMONELLA TYPHIMURIUM; Strain/Indicator: TA97; Metabolic Activation: RAT, LIVER, S-9, AROCLOR 1254 (10%); Method: PREINCUBATION
Activity calls are given as the source filed them. The rule behind the calls is not given here.
measurement_name: mutagenic call

Example entries and their recorded answers appear below.
compound: c1ccc2c(c1)ccc1ccccc12
measurement_name: mutagenic call
endpoint_result: inactive; negative

compound: O=c1c2[nH]c3ccccc3c2nnn1/N=C/c1ccc(Cl)cc1
measurement_name: mutagenic call
endpoint_result: active; positive

compound: CCN(C(=O)N(CC)c1ccccc1)c1ccccc1
measurement_name: mutagenic call
endpoint_result: inactive; negative

compound: Cc1ccc(Cl)cc1
measurement_name: mutagenic call
endpoint_result: inactive; negative

compound: Nc1ccc(NCCO)c([N+](=O)[O-])c1
measurement_name: mutagenic call
endpoint_result: active; positive

## Task What value of mutagenic call has been reported for the following compound? "Oc1cc(Cl)c(Cl)c(Cl)c1"
## Result inactive; negative

## Task Now give it for "CC(Cl)(Cl)[N+](=O)[O-]" too.
## Result active; positive

## Task Now give it for "CCCCOCCCC" too.
## Result inactive; negative

## Task Now give it for "OC[P+](CO)(CO)CO" too.
## Result inactive; negative

## Task Now give it for "CC(=O)Nc1ccccc1N" too.
## Result active; positive

## Task Now give it for "CC(Cl)Cl" too.
## Result inactive; negative

====

Test system: CCRIS mutagenicity, Ames/micronucleus/aberration tests
method: CCRIS mutagenicity studies
condition_context: Test System: AMES SALMONELLA TYPHIMURIUM; Strain/Indicator: TA97; Metabolic Activation: RAT, LIVER, S-9, AROCLOR 1254 (10 OR 30%); Method: PREINCUBATION
Calls of active or inactive are those of the source. No rule for the calls is given here.
measurement_name: mutagenic call

Example entries and their recorded answers appear below.
molecule: CC(=O)Nc1cccc(C)c1
mutagenic call: inactive; negative

molecule: CC(=O)Nc1ccccc1
mutagenic call: inactive; negative

molecule: O=S(=O)(O)c1ccccc1
mutagenic call: inactive; negative

molecule: CCCCCCC(O)C/C=C\CCCCCCCC(=O)OCC(COC(=O)CCCCCCC/C=C\CC(O)CCCCCC)OC(=O)CCCCCCC/C=C\CC(O)CCCCCC (stereo not given)
mutagenic call: inactive; negative

molecule: O=CNc1ccccc1
mutagenic call: inactive; negative

molecule: C=C(C)/C([O-])=N/[N+](C)(C)CC(C)O (stereo not given)
mutagenic call: inactive; negative

molecule: CCN(CC)c1ccccc1
mutagenic call: inactive; negative

molecule: O=Nc1ccc(O)cc1
mutagenic call: inactive; negative

## Task What value of mutagenic call has been reported for the following molecule? "NC(N)=S"
## Result inactive; negative

## Task Now give it for COC(=O)C(Cl)CCC(Cl)CCCCCC(Cl)CCC(Cl)CCCCCl (stereo not given) too.
## Result inactive; negative

## Task Now give it for "[K+]" too.
## Result inactive; negative

## Task Now give it for "C[C@@H]1[C@H](O)[C@@H](C)/C=C/C=C/C=C/C=C/C=C/C=C/C=C/[C@H](O[C@@H]2O[C@H](C)[C@@H](O)[C@H](N)[C@@H]2O)C[C@@H]2O[C@](O)(C[C@@H](O)C[C@@H](O)[C@H](O)CC[C@@H](O)C[C@@H](O)CC(=O)O[C@H]1C)C[C@H](O)[C@H]2C(=O)O" too.
## Result inactive; negative

## Task Now give it for "Cc1cc(=O)[nH]c(=S)[nH]1" too.
## Result inactive; negative

====

Tested on: CCRIS mutagenicity, Ames/micronucleus/aberration tests
method: CCRIS mutagenicity studies
condition_context: Test System: AMES SALMONELLA TYPHIMURIUM; Strain/Indicator: TA1538; Metabolic Activation: RAT, LIVER, S-9, AROCLOR 1254; Method: STANDARD PLATE
Excerpt: The CCRIS database contains chemical records with carcinogenicity, mutagenicity, tumor promotion, and tumor inhibition test results. It was developed by the National Cancer Institute (NCI). Data are derived from studies cited in primary journals, current awareness tools, NCI reports, and other sources. Test results have been reviewed by experts in carcinogenesis and mutagenesis. CCRIS provides historical information from the years 1985 - 2011. It is no longer updated. […]
Activity calls are given as the source filed them. The rule behind the calls is not given here.
Just give me one of these, please: t (active), f (inactive)

## Task Lab log entry: "CCOc1cc(N=Nc2ccc(N(CCO)CCO)cc2)ccc1N=Nc1c(S(=O)(=O)O)cc2ccc(N)cc2c1O" — outcome as called in the assay?
## Result t

## Task Now give it for "C=C(C)C(=O)OCCCCC" too.
## Result f

## Task Now give it for "CC1=CC(=C(C#N)C#N)C=C(C=Cc2ccc(N(C)C)cc2)O1" too.
## Result t

## Task Now give it for "FC(F)(F)c1cccc(Cl)c1" too.
## Result f

## Task Now give it for "Cc1ccc(N=Nc2ccc(N(CCO)CCO)cc2)cc1" too.
## Result f

## Task Now give it for "Cc1cc(S(=O)(=O)O)ccc1N" too.
## Result f

## Task Now give it for "Nc1ccc(N=Nc2ccccc2)cc1" too.
## Result t

## Task Now give it for "Clc1nc2ccccc2nc1Cl" too.
## Result f

## Task Now give it for "COc1cc(-c2ccc(N/N=C3\C=C(S(=O)(=O)O)c4ccccc4C3=O)c(OC)c2)ccc1N=Nc1cc(S(=O)(=O)O)c2ccccc2c1N" too.
## Result f

## Task Now give it for "Fc1c(F)c(F)c(Cl)c(F)c1F" too.
## Result f

## Task Now give it for "O=C(COc1cc(Cl)c(Cl)cc1Cl)N[C@@H](Cc1c[nH]c2ccccc12)C(=O)O" too.
## Result f

## Task Now give it for "C1COCO1" too.
## Result f

====

Tested on: CCRIS mutagenicity, Ames/micronucleus/aberration tests
method: CCRIS mutagenicity studies
condition_context: Test System: AMES SALMONELLA TYPHIMURIUM; Strain/Indicator: TA1535; Metabolic Activation: RAT, LIVER, S-9, PHENOBARBITAL; Method: STANDARD PLATE
Activity calls are given as the source filed them. The rule behind the calls is not given here.
Just give me one of these, please: 1 (yes) (active), 0 (no) (inactive)

compound: COc1cccc2c1CC([N+](=O)[O-])c1ccc3c(c1-2)OCO3 (centres undefined)
cat: 1 (yes)
--
compound: O=P1(N(CCCl)CCCl)NCCCO1 (centres undefined)
cat: 1 (yes)
--
compound: COP(=S)(OC)SCN1C(=O)c2ccccc2C1=O
cat: 0 (no)

Please look at the following compound next.
## Task Lab log entry: "BrCCBr" — outcome as called in the assay?
## Result 1 (yes)
